Values were extracted from ChEMBL document CHEMBL3872275.

# PROCEDURE DETAILS: Antiproliferative activity against human K562 cells after 3 days by thymidine incorporation assay
# Type: functional, cell-based
# CONDITIONS: K562, 72 h
READOUT: IC50 (nM)
Field: numeric (nM). Do not append units.

[
  {
    "COMPOUND": "Nc1c(C(=O)Nc2ccccc2Cl)sc2nc3c(cc12)C(O)CCC3 (configuration not stated)",
    "IC50 (nM)": 431
  }
]

Please find the next compound below.
Which IC50 value is on record for CC(=O)OC1CCCc2nc3sc(C(=O)Nc4ccccc4Cl)c(N)c3cc21 (configuration not stated) ? 192

###

# PROCEDURE DETAILS: Growth inhibition of human MDA-MB-468 cells at 10 uM after 48 hrs by SRB assay relative to control
# Assay type: functional
# CONDITIONS: MDA-MB-468, 48 h, values are per cent of control
// growth, % of control at 10 µM lookup, one value per entry
Field: numeric (%). Do not append units.

[
  {
    "MOLECULE": "O=C1CCCc2nc3sc4c(=O)n(-c5ccccc5Cl)nnc4c3cc21",
    "growth, % of control at 10 µM [%]": 86
  },
  {
    "MOLECULE": "O=c1c2sc3nc4c(cc3c2nnn1-c1ccccc1Cl)C(O)CCC4 (stereo unspecified)",
    "growth, % of control at 10 µM [%]": 91
  }
]

Which growth, % of control at 10 µM value is on record for Nc1c(C(=O)Nc2ccccc2Cl)sc2nc3c(cc12)C(=O)CCC3 ? 25

Which growth, % of control at 10 µM value is on record for O=c1c2sc3nc4c(cc3c2nnn1-c1ccccc1Cl)CCCC4 ? 88

Which growth, % of control at 10 µM value is on record for Nc1c(C(=O)Nc2ccccc2Cl)sc2nc3c(cc12)CCCC3 ? 91

Which growth, % of control at 10 µM value is on record for Nc1c(C(=O)Nc2ccccc2Cl)sc2nc3c(cc12)C(O)CCC3 (stereo unspecified) ? 26
